# STUDY TARGET: UniProtKB P33527
# Sequence (P33527 whole entry): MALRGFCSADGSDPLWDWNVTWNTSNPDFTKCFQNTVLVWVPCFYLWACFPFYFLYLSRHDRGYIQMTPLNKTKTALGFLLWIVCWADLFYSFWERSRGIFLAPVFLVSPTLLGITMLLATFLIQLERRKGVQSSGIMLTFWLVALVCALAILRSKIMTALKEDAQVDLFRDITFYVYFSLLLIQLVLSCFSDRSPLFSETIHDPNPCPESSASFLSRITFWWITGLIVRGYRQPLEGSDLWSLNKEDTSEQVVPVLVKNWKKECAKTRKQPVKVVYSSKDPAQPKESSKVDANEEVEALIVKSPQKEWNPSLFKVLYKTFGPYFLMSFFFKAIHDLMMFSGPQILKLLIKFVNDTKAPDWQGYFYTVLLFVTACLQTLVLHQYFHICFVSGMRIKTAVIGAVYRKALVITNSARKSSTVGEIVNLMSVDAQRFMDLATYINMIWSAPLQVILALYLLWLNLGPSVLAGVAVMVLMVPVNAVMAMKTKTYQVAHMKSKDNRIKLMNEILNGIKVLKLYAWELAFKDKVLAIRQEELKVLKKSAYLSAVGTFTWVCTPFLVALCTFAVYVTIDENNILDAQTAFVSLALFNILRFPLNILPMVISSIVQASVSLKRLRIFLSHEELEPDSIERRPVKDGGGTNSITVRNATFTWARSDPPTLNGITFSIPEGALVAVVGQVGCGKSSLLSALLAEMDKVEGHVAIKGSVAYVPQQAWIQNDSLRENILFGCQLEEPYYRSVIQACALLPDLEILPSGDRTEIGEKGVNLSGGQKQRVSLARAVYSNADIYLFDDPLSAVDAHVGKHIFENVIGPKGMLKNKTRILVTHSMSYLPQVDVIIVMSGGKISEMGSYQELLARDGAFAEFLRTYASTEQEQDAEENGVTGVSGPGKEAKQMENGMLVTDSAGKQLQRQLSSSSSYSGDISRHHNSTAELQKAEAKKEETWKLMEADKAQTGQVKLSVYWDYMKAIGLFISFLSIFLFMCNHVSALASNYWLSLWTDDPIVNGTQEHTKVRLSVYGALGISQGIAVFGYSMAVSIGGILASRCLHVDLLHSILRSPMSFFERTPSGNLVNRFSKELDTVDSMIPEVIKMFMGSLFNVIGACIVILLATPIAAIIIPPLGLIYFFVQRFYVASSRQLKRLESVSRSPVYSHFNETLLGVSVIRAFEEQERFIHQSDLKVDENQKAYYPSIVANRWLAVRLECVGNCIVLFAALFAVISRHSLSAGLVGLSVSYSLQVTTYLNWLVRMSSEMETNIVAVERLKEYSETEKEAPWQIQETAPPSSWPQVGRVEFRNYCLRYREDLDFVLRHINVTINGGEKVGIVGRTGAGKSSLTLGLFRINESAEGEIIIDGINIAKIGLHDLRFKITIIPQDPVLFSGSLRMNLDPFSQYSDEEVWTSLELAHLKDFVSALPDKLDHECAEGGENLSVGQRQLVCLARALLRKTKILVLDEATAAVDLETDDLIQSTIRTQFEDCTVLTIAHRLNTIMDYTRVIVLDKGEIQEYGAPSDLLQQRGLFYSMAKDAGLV
# PROTOCOL SUMMARY: Inhibition of human MRP1 expressed in MDCK2 cells assessed as inhibition of calcein-AM efflux at 30 uM relative to reversan
# Type: cell-based, MDCK-II
# EXPERIMENTAL SETUP: MDCK2 cells expressing human MRP1, probe calcein-AM, read-out: Imax
ATTRIBUTE MEASURED: inhibition at 30 µM (%)

[[record]]
structure = "COc1cccc2oc(N3CCN(Cc4ccc([N+](=O)[O-])cc4)CC3)cc(=O)c12"
attribute_measured = "inhibition at 30 µM"
meas_value = 38.8

[[record]]
structure = "COc1cc(O)c2c(=O)cc(C(=O)N3CCN(Cc4ccc([N+](=O)[O-])cc4)CC3)oc2c1"
attribute_measured = "inhibition at 30 µM"
meas_value = 70.5

[[record]]
structure = "COc1cc(OC)c2c(=O)cc(N3CCN(Cc4ccc([N+](=O)[O-])cc4)CC3)oc2c1"
attribute_measured = "inhibition at 30 µM"
meas_value = 130

[[record]]
structure = "COc1cc(OC)c2c(=O)cc(N3CCN(CCc4ccccc4)CC3)oc2c1"
attribute_measured = "inhibition at 30 µM"
meas_value = 44.5

[[record]]
structure = "COc1cc(OC)c2c(=O)cc(N3CCN(Cc4ccc(S(=O)(=O)C(F)(F)F)cc4)CC3)oc2c1"
attribute_measured = "inhibition at 30 µM"
meas_value = 98.8

[[record]]
structure = "COc1cc(OC)c2c(=O)cc(N3CCN(Cc4ccc(F)c(F)c4)CC3)oc2c1"
attribute_measured = "inhibition at 30 µM"
meas_value = 141

